Test system: ovariectomized rats
method.summary: ovariectomized rat model of postmenopausal hyperlipidemia (uterine weight, uterine eosinophil peroxidase, serum cholesterol)
Format: in vivo
measurement.parameters: rat, in vivo, 10 mg/kg
Marks after values point to notes of the source that are not given here.
Please go through the items and note down their Uterine Eosinophil (Vmax).

Complete the entry with Uterine Eosinophil (Vmax) for O=C(c1ccc(OCCCCN2CCCC2)cc1)c1c(-c2ccc(O)cc2)sc2cc(O)ccc12 [Example 14]
66.5*

Complete the entry with Uterine Eosinophil (Vmax) for O=C(c1ccc(OCCCCCCN2CCCC2)cc1)c1c(-c2ccc(O)cc2)sc2cc(O)ccc12 [Example 12]
17.2*

Complete the entry with Uterine Eosinophil (Vmax) for O=C(c1ccc(OCCCCCN2CCCC2)cc1)c1c(-c2ccc(O)cc2)sc2cc(O)ccc12 [Example 13]
37.8*

Complete the entry with Uterine Eosinophil (Vmax) for O=C(c1ccc(OCCCCCCCCN2CCCC2)cc1)c1c(-c2ccc(O)cc2)sc2cc(O)ccc12 [Preparation C]
40.3*

Complete the entry with Uterine Eosinophil (Vmax) for O=C(c1ccc(OCCCN2CCCC2)cc1)c1c(-c2ccc(O)cc2)sc2cc(O)ccc12 [Example 15]
137.3*

Complete the entry with Uterine Eosinophil (Vmax) for O=C(c1ccc(OCCCCCCCN2CCCC2)cc1)c1c(-c2ccc(O)cc2)sc2cc(O)ccc12 [Example 11]
59.2*

----------
Please go through the items and note down their Uterine Weight % Inc.
Test system: ovariectomized rats
method.summary: ovariectomized rat model of postmenopausal hyperlipidemia (uterine weight, uterine eosinophil peroxidase, serum cholesterol)
Assay type: in vivo
measurement.parameters: rat, in vivo, 10 mg/kg
Experimental: Experimental models of postmenopausal hyperlipidemia are known in the art. Germane to this invention is the ovariectomized rat model which is detailed in U.S. Pat. No. 5,464,845. Data presented in Table 1 show comparative results among ovariectomized rats, rats treated with 17-α-ethynyl estradiol(EE2), and rats treated with certain compounds of this invention. […] As expressed in the data below, estrogenicity also was assessed by evaluating the response of eosinophil infiltration into the uterus. […]
Marks after values point to notes of the source that are not given here.

Complete the entry with Uterine Weight % Inc for `O=C(c1ccc(OCCCCCCCN2CCCC2)cc1)c1c(-c2ccc(O)cc2)sc2cc(O)ccc12`
64.0* %

Complete the entry with Uterine Weight % Inc for `O=C(c1ccc(OCCCCCCCCN2CCCC2)cc1)c1c(-c2ccc(O)cc2)sc2cc(O)ccc12`
69.3* %

Complete the entry with Uterine Weight % Inc for `O=C(c1ccc(OCCCCCN2CCCC2)cc1)c1c(-c2ccc(O)cc2)sc2cc(O)ccc12`
39.2* %

Complete the entry with Uterine Weight % Inc for `O=C(c1ccc(OCCCCN2CCCC2)cc1)c1c(-c2ccc(O)cc2)sc2cc(O)ccc12`
62.0* %

Complete the entry with Uterine Weight % Inc for `O=C(c1ccc(OCCCN2CCCC2)cc1)c1c(-c2ccc(O)cc2)sc2cc(O)ccc12`
58.2* %

Complete the entry with Uterine Weight % Inc for `O=C(c1ccc(OCCCCCCN2CCCC2)cc1)c1c(-c2ccc(O)cc2)sc2cc(O)ccc12`
47.8* %
